assay: ATG_CMV_CIS: Attagene CIS-FACTORIAL HepG2 Assay for human CMV (Internal Marker) (AID 2282928); conditions: HepG2 CMV promoter reporter, transcription factor profiling; actives raise or lower the signal;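 further: endpoint acts as a background internal control marker rather than a target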
Active and inactive are the calls of the source. How the source made its calls: active means hit-call score of the fitted dose curve at least 0.9, where 1 is the maximum; inactive means score below 0.9.
Outcomes: T (active), F (inactive)

- compound structure: "O=C(CCl)CCl"
  class: "T"
- compound structure: "ClC(Cl)=C(Cl)C(Cl)=C(Cl)Cl"
  class: "F"
- compound structure: "O=C(OC1CCCCC1)c1ccccc1C(=O)OC1CCCCC1"
  class: "T"
- compound structure: "ClCc1ccccn1"
  class: "F"
- compound structure: "COc1cc(OC)nc(NC(=O)NS(=O)(=O)c2ncccc2C(=O)N(C)C)n1"
  class: "F"
- compound structure: "CC(C)(OO)c1ccccc1"
  class: "F"
- compound structure: "C(=NC1CCCCC1)=NC1CCCCC1"
  class: "F"
- compound structure: "CCc1ccccc1C"
  class: "F"

---

read-out: Secreted IgG (sIgG), gene 3500; assay: BSK_BT_sIgG: BioMAP Diversity Plus: BT Assay for Secreted IgG (sIgG) Biomarker Activity (AID 2284226); details: primary human B cells with PBMC
Activity calls are given as the source filed them. Rule for the calls: active = hit-call score of the fitted dose curve at least 0.9, where 1 is the maximum; inactive = score below 0.9.
Outcomes: active, inactive

- molecule: "OCc1ccco1"
  class: "active"
- molecule: "COC(=O)c1sccc1S(=O)(=O)NC(=O)Nc1nc(C)nc(OC)n1"
  class: "inactive"
- molecule: "O=[N+]([O-])c1ccc2c3c(cccc13)CC2"
  class: "inactive"
- molecule: "O=C(O)C(F)(F)C(F)(F)C(F)(F)C(F)(F)C(F)(F)C(F)(F)F"
  class: "inactive"
- molecule: "CCOP(=S)(OCC)SCCS(=O)(=O)CC"
  class: "inactive"
- molecule: "Nc1ccc(-c2ccc(N)c(Cl)c2)cc1Cl"
  class: "active"
- molecule: "NC(=S)Nc1ccccc1"
  class: "inactive"
- molecule: "CC(C)CCCCCCOC(=O)c1ccccc1C(=O)OCCCCCCC(C)C"
  class: "inactive"
- molecule: "CCOP(=S)(OCC)Oc1ccc(S(C)=O)cc1 (centres undefined)"
  class: "inactive"

---

read-out: Matrix Metallopeptidase 1 (MMP1), MMP1 (gene 4312); assay: BSK_BE3C_MMP1: BioMAP Diversity Plus: BE3C Assay for Matrix Metallopeptidase 1 (MMP1) Biomarker Activity (AID 2283024); settings: primary human bronchial epithelial cells; actives raise or lower the signal
Activity calls are given as the source filed them. Rule for the calls: active = hit-call score of the fitted dose curve at least 0.9, where 1 is the maximum; inactive = score below 0.9.

- compound: "CCOC(=O)/C=C(C)/C=C/C[C@@H](C)CCCC(C)C"
  AC50: "inactive"
- compound: "CCOP(=S)(OCC)Oc1ccc(S(C)=O)cc1 (centres undefined)"
  AC50: "inactive"
- compound: "CC(=O)OC(c1ccccc1)C(Cl)(Cl)Cl (centres undefined)"
  AC50: "inactive"
- compound: "CC(C)c1ccc(CO)cc1"
  AC50: "inactive"
- compound: "CCCCC(CC)CO[N+](=O)[O-] (centres undefined)"
  AC50: "inactive"
- compound: "C[C@@H]1C[C@@H]([C@H](O)CC2CC(=O)NC(=O)C2)C(=O)[C@@H](C)C1"
  AC50: "2.51 µM (active)"
- compound: "CC(=O)C(Cl)C(=O)N(C)C (centres undefined)"
  AC50: "inactive"
- compound: "CC(C)(OO)c1ccccc1"
  AC50: "inactive"
- compound: "CC(C)(C)c1cc(O)ccc1O"
  AC50: "8.5 µM (active)"
- compound: "CCSC(C)CC1CC(=O)C(C(CC)=NOC/C=C/Cl)=C(O)C1 (centres undefined)"
  AC50: "inactive"
- compound: "Cn1sc(Cl)cc1=O"
  AC50: "inactive"
- compound: "CCOP(=S)(OCC)Oc1nc(Cl)c(Cl)cc1Cl"
  AC50: "inactive"
- compound: "CC1(C)Cc2cccc(O)c2O1"
  AC50: "inactive"
- compound: "O=[N+]([O-])c1ccc2c3c(cccc13)CC2"
  AC50: "inactive"
- compound: "C(=NC1CCCCC1)=NC1CCCCC1"
  AC50: "36.5 µM (active)"
- compound: "O=c1[nH]c(=O)[nH]c(=O)[nH]1"
  AC50: "inactive"
- compound: "Oc1c(I)cc(I)cc1I"
  AC50: "6.77 µM (active)"
- compound: "C=C(C)C(=O)[O][Sn]([CH2]CCC)([CH2]CCC)[CH2]CCC"
  AC50: "0.148 µM (active)"
- compound: "CC12CC1(C)C(=O)N(c1cc(Cl)cc(Cl)c1)C2=O (centres undefined)"
  AC50: "inactive"
- compound: "O=[N+]([O-])c1ccc(O)c([N+](=O)[O-])c1"
  AC50: "inactive"
- compound: "Cc1ccccc1N"
  AC50: "inactive"
- compound: "CC(C)(c1ccccc1)c1ccc(O)c(C(C)(C)c2ccccc2)c1"
  AC50: "32.3 µM (active)"
- compound: "CCCCCCCCC(=O)NCc1ccc(O)c(OC)c1"
  AC50: "inactive"
- compound: "CCNc1nc(NC(C)(C)C)nc(SC)n1"
  AC50: "inactive"
